# key: entry, value: TGI
- Test system: SNB-19 CNS
- Protocol details: NCI tumour cell line growth inhibition, 48 h

COc1ccccc1NC(=O)CC(=O)N1N=C(C)C(N=Nc2ccc(S(N)(=O)=O)cc2)C1=O (configuration not stated) | > 100 µM
COc1ccc2c(c1)C(O)(C(F)(F)F)c1cc(C(=O)C(F)(F)F)c3ccccc3c1N2 (configuration not stated) | 29.5 µM
COc1cccc(-c2cc(=O)c3c(C)cc(C)nc3[nH]2)c1 | > 100 µM
c1cc(-c2cn3ccsc3n2)ccn1 | > 100 µM

## Input Fill in: TGI of O=C(c1ccc(F)cc1)c1cccc(C(=O)c2ccc(F)cc2)n1 is ___
## Output 54 µM

## Input Another molecule to look at: CC(C)(C)C1=Cc2cc3cc(C(C)(C)C)[nH]c(=O)c3cc2S(=O)(=O)N1
## Output > 100 µM

## Input Another molecule to look at: COc1ccc(/C(=N/O)c2ccccc2-c2nc3ccccc3c(=O)n2-c2ccc(S(=O)(=O)Nc3ncccn3)cc2)cc1C
## Output > 31.6 µM

---

# key: entry, value: TGI
- Tested on: SR leukemia
- Protocol details: NCI tumour cell line growth inhibition, 48 h

## Input Please state recorded TGI (tested on SR leukemia) of COc1c2c(c3c(c1CCC(=O)O)OC(C)(C)C=C3)OC(C)(C)C=C2
## Output > 100 µM

## Input Another compound to look at: COC(=O)[C@@H](C)C[C@H](Cc1ccccc1)NC(=O)c1nc([C@@H](C[C@H](C(C)C)N(C)C(=O)[C@@H](NC(=O)[C@H]2CCCCN2C)C(C)C)OC(C)=O)sc1C
## Output > 16.7 µM

## Input Another compound to look at: CCCCn1c2c(n(CCCC)c1=S)-c1c(n(CCCC)c(=S)n1CCCC)S[Se][Se]S2
## Output > 100 µM

---

- Test system: SK-OV-3 ovarian
- Protocol details: NCI tumour cell line growth inhibition, 48 h
Measured property: TGI

CC(C)(C)N=c1n(C(C)(C)C)oc(=O)n1C(C)(C)C | > 100 µM
Cc1ccc(-c2c(N)[n+]([O-])c3ccccc3[n+]2[O-])cc1 | 35.9 µM
N#CC(C(=O)/C(=N/NC(=O)c1ccccc1O)C(C#N)c1ccc(Cl)cc1)c1ccc(Cl)cc1 (centres undefined) | 90.5 µM

## Input Fill in: TGI of Cc1ccc(S(=O)(=O)N2CCSCCSCCSCCSCC2)cc1 is ___
## Output 46 µM

## Input Another compound to look at: NC(=O)C(=O)N/N=C1/c2ccccc2CC1C1(O)C(=O)Nc2c(Cl)cc(Cl)cc21 (centres undefined)
## Output > 100 µM

## Input Another compound to look at: C[C@@H](C(=O)Nc1ccc(Cl)cc1)C1CCC(c2ccnc3ccc(F)cc23)CC1 (some centres undefined)
## Output 73.8 µM

## Input Another compound to look at: COC(=O)[C@]12CC[C@@H](C)[C@H](C)[C@@H]1C1=CC[C@@H]3[C@@]4(C)C[C@@H](OC(C)=O)[C@H](O)[C@@](C)(COC(C)=O)[C@@H]4[C@H](O)C[C@@]3(C)[C@]1(C)CC2
## Output 10.3 µM

## Input Another compound to look at: C=C(Cl)/C(=C\Cl)CCC(Br)C(C)C (centres undefined)
## Output > 100 µM

## Input Another compound to look at: CCSC1=CC(=O)c2nc3ccccc3c3ccnc1c23
## Output > 100 µM

## Input Another compound to look at: OC[C@@H](O)[C@H]1NC[C@@H](O)[C@H]1O
## Output > 100 µM

## Input Another compound to look at: O=[N+]([O-])C(=C(N1CCCCC1)N1CCCCC1)/C(Cl)=C(\Cl)Br
## Output > 100 µM

## Input Another compound to look at: CCN(CC)CCn1ccc(=O)c2cc3c(=O)ccn(CCN(CC)CC)c3c(C)c21
## Output 15.9 µM

## Input Another compound to look at: CCC(C(=O)O)c1ccc(OCc2ccccc2)cc1 (centres undefined)
## Output > 100 µM

## Input Another compound to look at: Cc1cc(C)c2c(=O)n(CN3CC4Nc5ccccc5C4C3)sc2n1 (centres undefined)
## Output > 100 µM

## Input Another compound to look at: CN(C)C(CN)CC1=C(CC(CN)N(C)C)CCC1 (centres undefined)
## Output > 100 µM

## Input Another compound to look at: CC(=O)NC(CCCNCc1ccccc1)C(=O)NCc1ccccc1 (centres undefined)
## Output > 100 µM
